// pIC50 collected for DGKζ (hDGKzeta(1-928)-N-His) (Homo sapiens, UniProt Q13574)
The read-out pIC50 is expressed as -log10 of concentration in moles per litre.

Answered cases to consult:
COC(=O)N1CC(c2nnc(-c3ccc4c(c3)N(Cc3ccc(-c5noc(C(C)(C)C)n5)cc3)C(=O)[C@@H](N)CS4(=O)=O)o2)CC(F)(F)C1 (stereo partly drawn) ... 6.64
COC(=O)N1CC2CC(c3nnc(-c4ccc5c(c4)N(Cc4ccc(-c6ccc(C(F)(F)F)cn6)cc4)C(=O)[C@@H](N)CS5(=O)=O)o3)(C2)C1 ... 5.87
COC(=O)N1CC2CC(c3nnc(-c4ccc5c(c4)N(Cc4ccc(-c6noc(C(F)(F)F)n6)cc4)C(=O)[C@@H](N)CS5(=O)=O)o3)(C2)C1 ... 5.95
COC(=O)N1CC2CC(c3nnc(-c4ccc5c(c4)N(Cc4ccc(-c6ccc(OC)cc6)cc4)C(=O)[C@@H](N)CS5(=O)=O)o3)(C2)C1 ... 5.94
CC(C)(C#N)c1nnc(-c2ccc3c(c2)N(Cc2ccc(-n4cc(C(F)(F)F)nn4)cc2)C(=O)[C@@H](N)CS3(=O)=O)o1 ... 6.02

Okay, next one:
Short answer for N[C@H]1CS(=O)(=O)c2ccc(-c3nnc(C4(C5CC5)CCCO4)o3)cc2N(Cc2ccc(-c3nnc(C(F)(F)F)o3)cc2)C1=O (stereo partly drawn) : pIC50 was 5.68

---

# Test system: primary human T-cells
# runDescription: IL2 secretion measurements (24 h, CD3-stimulated T-cells, PBS counter screen)
# Type: cell-based
# conditionsUsed: CD3 condition; normalised to DMSO (neutral) and 20 μM reference compound A1 = 100%
We use 90 % activation as the dividing line for Emax IL2 (% activation): on or above the line is t, below is f.

CC(C)(C#N)c1nnc(-c2ccc3c(c2)N(Cc2ccc(-c4cc(OC(F)F)ccn4)cc2)C(=O)[C@@H](N)CS3(=O)=O)o1 ... f

Task: Given the entry CC(C)(C)c1nnc(-c2ccc3c(c2)N(Cc2ccc(-n4cnc(C(F)(F)F)n4)cc2)C(=O)[C@@H](N)CS3(=O)=O)o1 , answer whether its Emax IL2 (% activation) meets or surpasses 90 % activation.
Output: t

Task: Quick check: does COCCN1CC(c2nnc(-c3ccc4c(c3)N(Cc3ccc(-c5ccc(OC)cc5)cc3)C(=O)[C@@H](N)CS4(=O)=O)o2)CC(F)(F)C1 (stereo partly drawn) have Emax IL2 (% activation) greater than or equal to 90 % activation?
Output: f

Task: Does the compound CC(N)(c1nnc(-c2ccc3c(c2)N(Cc2ccc(-c4noc(C(F)(F)F)n4)cc2)C(=O)[C@@H](N)CS3(=O)=O)o1)C(F)(F)F (stereo partly drawn) have recorded Emax IL2 (% activation) that is 90 % activation or more?
Output: t

Task: Answer whether Emax IL2 (% activation) of CC(O)(c1nnc(-c2ccc3c(c2)N(Cc2ccc(-c4noc(C5CC5)n4)cc2)C(=O)[C@@H](N)CS3(=O)=O)o1)C(F)(F)F (stereo partly drawn) is greater than or equal to 90 % activation.
Output: f

Task: Given COCCN1CC(c2nnc(-c3ccc4c(c3)N(Cc3ccc(-c5noc(C(F)(F)F)n5)cc3)C(=O)[C@@H](N)CS4(=O)=O)o2)CC(F)(F)C1 (stereo partly drawn) , state whether its Emax IL2 (% activation) is at least 90 % activation.
Output: t

Task: API: above_or_equal(metric=Emax IL2 (% activation), cutoff=90 % activation) for item N[C@H]1CS(=O)(=O)c2ccc(-c3nnc(N4CCC(F)(F)CC4)o3)cc2N(Cc2ccc(-c3nc(C(F)(F)F)no3)cc2)C1=O
Output: t

Task: # check: Emax IL2 (% activation) of COc1ccc(-c2ccc(CN3C(=O)[C@@H](N)CS(=O)(=O)c4ccc(-c5nnc(C6(F)CCCN(C)C6)o5)cc43)cc2)cc1 (stereo partly drawn) is greater than or equal to 90 % activation
Output: t

Task: Please check the record CC(C)(C)C(N)c1nnc(-c2ccc3c(c2)N(Cc2ccc(-c4noc(C(F)(F)F)n4)cc2)C(=O)[C@@H](N)CS3(=O)=O)o1 (stereo partly drawn) and state if its Emax IL2 (% activation) is at or above 90 % activation.
Output: f

Task: Decide: Emax IL2 (% activation) of N[C@H]1CS(=O)(=O)c2cc(F)c(-c3noc(N4CCOC(F)(F)C4)n3)cc2N(Cc2ccc(-c3noc(C(F)(F)F)n3)nc2)C1=O >= 90 % activation?
Output: t

Task: Could you tell me if the measured Emax IL2 (% activation) of N[C@H]1CS(=O)(=O)c2ccc(-c3nnc(N4CCOC(C(F)(F)F)C4)o3)cc2N(Cc2ccc(-c3ccc(C(F)(F)F)cc3)cc2)C1=O (stereo partly drawn) reaches 90 % activation or more?
Output: t
